System: Mus musculus
Assay: Anticonvulsant activity in albino CF1 mouse assessed as assessed as protection against 6 Hz psychomotor seizure at 100 mg/kg, ip after 0.25 hr by minimal clonic seizure test
Assay type: functional
Details: route intraperitoneal
parameter: Activity (%)
Numbers only here, please. The scale is %.

[[record]]
molecule = "O=C1CC(c2ccc(Cl)cc2)C(=O)N1CN1CCC(Cc2ccccc2)CC1 (racemic)"
study_target = "Mus musculus"
quantitative_result = 0

[[record]]
molecule = "O=C1CC(c2ccccc2)C(=O)N1CN1CCC(Cc2ccccc2)CC1 (racemic)"
study_target = "Mus musculus"
quantitative_result = 0

[[record]]
molecule = "O=C1CC(c2ccccc2)C(=O)N1CN1CCN(c2ncccn2)CC1 (racemic)"
study_target = "Mus musculus"
quantitative_result = 75


Report Activity under test system Mus musculus for O=C1CC(c2ccccc2)C(=O)N1CN1CCOCC1 (racemic) . 75

Report Activity under test system Mus musculus for O=C1CC(c2ccccc2Cl)C(=O)N1CN1CCOCC1 (racemic) . 100

###

System: Rattus norvegicus
Assay: Anticonvulsant activity in albino Sprague-Dawley rat assessed as protection against maximal electroshock-induced seizures at 30 mg/kg, po measured after 2 hrs
Format: functional
The source made the active and inactive calls. The calls are words filed in the database; no cut-off is given here.
parameter: Activity

Check out these entries, answers already filled in.
[[record]]
compound = "O=C1CC(c2cccc(Cl)c2)C(=O)N1CN1CCC(Cc2ccccc2)CC1 (racemic)"
parameter = "Activity"
result = "50%"

[[record]]
compound = "O=C1CC(c2ccccc2Cl)C(=O)N1CN1CCN(c2ncccn2)CC1 (racemic)"
parameter = "Activity"
result = "inactive"

[[record]]
compound = "O=C1NC(=O)C(c2ccccc2)(c2ccccc2)N1"
parameter = "Activity"
result = "75%"

[[record]]
compound = "O=C1CC(c2cccc(Cl)c2)C(=O)N1CN1CCN(c2ncccn2)CC1 (racemic)"
parameter = "Activity"
result = "inactive"

[[record]]
compound = "O=C1CC(c2ccccc2)C(=O)N1CN1CCOCC1 (racemic)"
parameter = "Activity"
result = "inactive"

[[record]]
compound = "O=C1CC(c2ccccc2)C(=O)N1CN1CCN(c2ncccn2)CC1 (racemic)"
parameter = "Activity"
result = "inactive"

[[record]]
compound = "O=C1CC(c2ccccc2Cl)C(=O)N1CN1CCOCC1 (racemic)"
parameter = "Activity"
result = "inactive"

[[record]]
compound = "O=C1CC(c2cccc(Cl)c2)C(=O)N1CN1CCOCC1 (racemic)"
parameter = "Activity"
result = "50%"


Consider the record given below.
Using the record for O=C1CC(c2ccccc2Cl)C(=O)N1CN1CCC(Cc2ccccc2)CC1 (racemic) , state its measured Activity. 25%

###

System: Rattus norvegicus
Experiment: Anticonvulsant activity in albino Sprague-Dawley rat assessed as protection against maximal electroshock-induced seizures at 30 mg/kg, po measured after 1 hr
Type: functional
parameter: Activity

Check out these entries, answers already filled in.
[[record]]
molecule = "O=C1NC(=O)C(c2ccccc2)(c2ccccc2)N1"
result = "75%"

[[record]]
molecule = "O=C1CC(c2ccccc2Cl)C(=O)N1CN1CCOCC1 (racemic)"
result = "25%"


Consider the record given below.
Using the record for O=C1CC(c2cccc(Cl)c2)C(=O)N1CN1CCC(Cc2ccccc2)CC1 (racemic) , state its measured Activity. 25%

###

Catalogue of compounds with associated MED
System: Mus musculus
Assay: Neurotoxicity in ip dosed albino CF1 mouse assessed as minimum motor impairment in half or more animals measured after 0.5 hrs by rotorod test
Assay type: toxicity, organism-based
Conditions: in vivo

[[record]]
compound = "O=C1CC(c2ccc(Cl)cc2)C(=O)N1CN1CCN(c2cccc(C(F)(F)F)c2)CC1 (racemic)"
parameter = "MED"
result = "300 mg/kg"

[[record]]
compound = "Cc1cccc(N2CCN(CN3C(=O)CC(c4cccc(Cl)c4)C3=O)CC2)c1 (racemic)"
parameter = "MED"
result = "100 mg/kg"


Report MED under test system Mus musculus for COc1ccccc1N1CCN(CN2C(=O)CC(c3cccc(Cl)c3)C2=O)CC1 (racemic) . 300 mg/kg

Report MED under test system Mus musculus for O=C1CC(c2ccc(Cl)cc2)C(=O)N1CN1CCN(c2ccccc2Cl)CC1 (racemic) . 300 mg/kg

Report MED under test system Mus musculus for O=C1NC(=O)C(c2ccccc2)(c2ccccc2)N1 [PHENYTOIN] . 100 mg/kg

###

Test system: Mus musculus
Experiment: Anticonvulsant activity against 6 Hz psychomotor seizure in ip dosed albino CF1 mouse assessed as time to peak effect by minimal clonic seizure test
Type: functional
Catalogue of molecules with associated Time
Numbers only here, please. The scale is h.

Check out these entries, answers already filled in.
[[record]]
molecule = "O=C1CC(c2ccccc2)C(=O)N1CN1CCN(c2ncccn2)CC1 (racemic)"
parameter = "Time"
quantitative_result = 1

[[record]]
molecule = "O=C1CC(c2ccccc2Cl)C(=O)N1CN1CCOCC1 (racemic)"
parameter = "Time"
quantitative_result = 0.25

[[record]]
molecule = "CC[C@@H](C(N)=O)N1CCCC1=O"
parameter = "Time"
quantitative_result = 1


Using the record for O=C1CC(c2ccccc2Cl)C(=O)N1CN1CCC(Cc2ccccc2)CC1 (racemic) , state its measured Time. 0.5

Using the record for O=C1CC(c2ccccc2)C(=O)N1CN1CCOCC1 (racemic) , state its measured Time. 0.25

###

Test system: Rattus norvegicus
Assay: Anticonvulsant activity in albino Sprague-Dawley rat assessed as protection against maximal electroshock-induced seizures at 30 mg/kg, po measured after 1 hr
Assay type: functional
Active and inactive are the calls of the source. The rule behind the calls is not given here.
parameter: Activity

Check out these entries, answers already filled in.
[[record]]
compound = "O=C1CC(c2ccccc2Cl)C(=O)N1CN1CCN(c2ncccn2)CC1 (racemic)"
result = "inactive"

[[record]]
compound = "O=C1CC(c2cccc(Cl)c2)C(=O)N1CN1CCN(c2ncccn2)CC1 (racemic)"
result = "inactive"

[[record]]
compound = "O=C1CC(c2ccccc2)C(=O)N1CN1CCN(c2ncccn2)CC1 (racemic)"
result = "inactive"

[[record]]
compound = "O=C1CC(c2cccc(Cl)c2)C(=O)N1CN1CCOCC1 (racemic)"
result = "50%"


Report Activity under test system Rattus norvegicus for O=C1CC(c2ccccc2Cl)C(=O)N1CN1CCC(Cc2ccccc2)CC1 (racemic) . 75%

###

Tested on: Mus musculus
Assay: Neurotoxicity in ip dosed albino CF1 mouse assessed as time to peak effect by rotorod test
Format: toxicity, organism-based
Conditions: in vivo
parameter: Time (h)
Numbers only here, please. The scale is h.

[[record]]
molecule = "O=C1CC(c2ccccc2Cl)C(=O)N1CN1CCC(Cc2ccccc2)CC1 (racemic)"
quantitative_result = 0.5


Using the record for O=C1CC(c2ccccc2)C(=O)N1CN1CCN(c2ncccn2)CC1 (racemic) , state its measured Time. 1

Using the record for O=C1CC(c2ccccc2)C(=O)N1CN1CCOCC1 (racemic) , state its measured Time. 0.25

Using the record for O=C1CC(c2ccccc2Cl)C(=O)N1CN1CCOCC1 (racemic) , state its measured Time. 0.25

Using the record for "CC[C@@H](C(N)=O)N1CCCC1=O" , state its measured Time. 1

###

Assay: Neurotoxicity in ip dosed albino CF1 mouse by rotorod test
Type: toxicity, organism-based
Details: in vivo
parameter: TD50 (mg/kg)
Numbers only here, please. The scale is mg/kg.

[[record]]
compound = "O=C1CC(c2ccccc2Cl)C(=O)N1CN1CCC(Cc2ccccc2)CC1 (racemic)"
parameter = "TD50"
quantitative_result = 275


Consider the record given below.
Using the record for O=C1CC(c2ccccc2)C(=O)N1CN1CCOCC1 (racemic) , state its measured TD50. 293

###

System: Mus musculus
Assay: Anticonvulsant activity in albino CF1 mouse assessed as assessed as protection against 6 Hz psychomotor seizure at 100 mg/kg, ip after 2 hrs by minimal clonic seizure test
Type: functional
Conditions: route intraperitoneal
Catalogue of molecules with associated Activity
Numbers only here, please. The scale is %.

Check out these entries, answers already filled in.
[[record]]
molecule = "O=C1CC(c2ccc(Cl)cc2)C(=O)N1CN1CCC(Cc2ccccc2)CC1 (racemic)"
quantitative_result = 75

[[record]]
molecule = "O=C1CC(c2ccccc2)C(=O)N1CN1CCC(Cc2ccccc2)CC1 (racemic)"
quantitative_result = 25


Using the record for O=C1CC(c2ccccc2)C(=O)N1CN1CCN(c2ncccn2)CC1 (racemic) , state its measured Activity. 50

Using the record for O=C1CC(c2ccccc2Cl)C(=O)N1CN1CCOCC1 (racemic) , state its measured Activity. 100

Using the record for O=C1CC(c2ccccc2)C(=O)N1CN1CCOCC1 (racemic) , state its measured Activity. 0

###

Tested on: Rattus norvegicus
Assay: Anticonvulsant activity in albino Sprague-Dawley rat assessed as protection against maximal electroshock-induced seizures at 30 mg/kg, po measured after 0.25 hr
Format: functional
Active and inactive are the calls of the source. The calls are words filed in the database; no cut-off is given here.
parameter: Activity

[[record]]
molecule = "O=C1CC(c2ccccc2)C(=O)N1CN1CCOCC1 (racemic)"
study_target = "Rattus norvegicus"
result = "inactive"

[[record]]
molecule = "O=C1CC(c2ccccc2)C(=O)N1CN1CCN(c2ncccn2)CC1 (racemic)"
study_target = "Rattus norvegicus"
result = "inactive"

[[record]]
molecule = "O=C1CC(c2ccccc2Cl)C(=O)N1CN1CCN(c2ncccn2)CC1 (racemic)"
study_target = "Rattus norvegicus"
result = "inactive"

[[record]]
molecule = "O=C1CC(c2ccccc2Cl)C(=O)N1CN1CCOCC1 (racemic)"
study_target = "Rattus norvegicus"
result = "inactive"

[[record]]
molecule = "O=C1CC(c2cccc(Cl)c2)C(=O)N1CN1CCOCC1 (racemic)"
study_target = "Rattus norvegicus"
result = "inactive"

[[record]]
molecule = "O=C1CC(c2cccc(Cl)c2)C(=O)N1CN1CCC(Cc2ccccc2)CC1 (racemic)"
study_target = "Rattus norvegicus"
result = "50%"


Using the record for O=C1CC(c2cccc(Cl)c2)C(=O)N1CN1CCN(c2ncccn2)CC1 (racemic) , state its measured Activity. inactive

Using the record for O=C1CC(c2ccccc2Cl)C(=O)N1CN1CCC(Cc2ccccc2)CC1 (racemic) , state its measured Activity. 25%

Using the record for O=C1NC(=O)C(c2ccccc2)(c2ccccc2)N1 [PHENYTOIN] , state its measured Activity. 25%
